- Assay comment: Absorbance at photostationary state (PSS) under simulated sunlight or 365 nm light
- Type: physicochemical
- Experimental parameters: ratio of PSS under 365 nm light to PSS under full spectrum light (without UV blocking film)
Rule: sensitivity index below 3 gives yes (1), anything at or above gives no (0).

For orientation, consider the following solved cases.
{"Compound": "COc1ccc2c(C3=C(c4c(-c5ccc(C)s5)oc5cc(OC)ccc45)C(F)(F)C(F)(F)C3(F)F)c(-c3ccc(C)s3)oc2c1 [S144]", "Group": "no (0)"}
{"Compound": "CC(C)(C)c1ccc(-c2sc(C(C)(C)C)cc2C2=C(c3cc(C(C)(C)C)sc3-c3ccc(C(C)(C)C)s3)C(F)(F)C(F)(F)C2(F)F)s1 [S073]", "Group": "no (0)"}
{"Compound": "FC1(F)C(c2cc(-c3ccccc3)sc2-c2ccccc2)=C(c2cc(-c3cccs3)sc2-c2cccs2)C(F)(F)C1(F)F [S005]", "Group": "yes (1)"}

Answer whether the compound COCCC[Si](CCCOC)(CCCOC)c1ccc(-c2sc(-c3ccc(C(C)(C)C)s3)cc2C2=C(c3cc(-c4ccc(C(C)(C)C)s4)sc3-c3ccc([Si](CCCOC)(CCCOC)CCCOC)s3)C(F)(F)C(F)(F)C2(F)F)s1 [S158] has sensitivity index strictly less than 3
yes (1)

Answer whether the compound CC(C)(C)c1ccc(-c2oc3cc(O)ccc3c2C2=C(c3c(-c4ccc(C(C)(C)C)cc4)oc4cc(O)ccc34)C(F)(F)C(F)(F)C2(F)F)cc1 [S162] has sensitivity index strictly less than 3
no (0)

Answer whether the compound Oc1ccc(-c2cc(C3=C(c4cc(-c5ccc(O)cc5)sc4-c4ccc(O)cc4)C(F)(F)C(F)(F)C3(F)F)c(-c3ccc(O)cc3)s2)cc1 [S084] has sensitivity index strictly less than 3
yes (1)
